From: paper PMC8657435

target: CDK2/cyclin E (Homo sapiens)
experiment: CDK2/cyclin E kinase inhibition assay ([γ-33P]ATP, peptide substrate)
Type: biochemical
experimentalContext: mixture purine·β-CD 1:1 molar ratio
propertyMeasured: CDK2/Cyclin E IC50, Purine·β-CD (1:1)

- structureSmilesString: "CC(C)n1cnc2c(Nc3cccc(CCC45CC6CC(CC(C6)C4)C5)c3)nc(NCCCO)nc21"
  valueReported: "no activity"
- structureSmilesString: "CC(C)n1cnc2c(Nc3ccc(CC45CC6CC(CC(C6)C4)C5)cc3)nc(NCCCO)nc21"
  valueReported: "no activity"

* * *

target: CDK2/cyclin E (Homo sapiens)
experiment: CDK2/cyclin E kinase inhibition assay ([γ-33P]ATP, peptide substrate)
Assay type: biochemical
experimentalContext: mixture purine·β-CD 1:10 molar ratio; read-out: CDK2/Cyclin E IC50, Purine·β-CD (1:10)
Description: CDK2/cyclin E activity was assayed as previously described. Briefly, the kinase was assayed with [γ-^33P]ATP and suitable peptide substrates in a reaction buffer (60 mM HEPES-NaOH, pH 7.5, 3 mM MgCl2, 3 mM MnCl2, 3 μM Na-orthovanadate, 1.2 mM DTT, 2.5 μg/50 μL PEG20.000). The reactions were stopped by adding 5 µL of 3% aq. H3PO4. Aliquots were spotted onto P-81 phosphocellulose, washed with 0.5% aq. H3PO4 and air-dried. Kinase inhibition was quantified using an FLA-7000 digital image analyser.
Lab note: anything with IC50 below 20 µM is marked True; values at 20 µM or higher are marked False.

- compound: "CC(C)n1cnc2c(NCc3cccc(C(=O)CC45CC6CC(CC(C6)C4)C5)c3)nc(NCCCO)nc21 [Compound 4i]"
  qualitativeLabel: "False"

Q: Does CC(C)n1cnc2c(Nc3cccc(CCC45CC6CC(CC(C6)C4)C5)c3)nc(NCCCO)nc21 [Compound 4h] have IC50 strictly under 20 µM?
Ans: False

Q: Does CC(C)n1cnc2c(Nc3cccc(C(O)CC45CC6CC(CC(C6)C4)C5)c3)nc(NCCCO)nc21 (stereo not shown) [Compound 4g] have IC50 strictly under 20 µM?
Ans: True

Q: Does CC(C)n1cnc2c(Nc3ccc(CC45CC6CC(CC(C6)C4)C5)cc3)nc(NCCCO)nc21 [Compound 4f] have IC50 strictly under 20 µM?
Ans: False

Q: Does CC(C)n1cnc2c(Nc3cccc(C(O)C45CC6CC(CC(C6)C4)C5)c3)nc(NCCCO)nc21 (stereo not shown) [Compound 4b] have IC50 strictly under 20 µM?
Ans: True

Q: Does CC(C)n1cnc2c(Nc3cccc(C(=O)C45CC6CC(CC(C6)C4)C5)c3)nc(NCCCO)nc21 [Compound 4a] have IC50 strictly under 20 µM?
Ans: False

Q: Does CC(C)n1cnc2c(NCc3ccc(C(=O)CC45CC6CC(CC(C6)C4)C5)cc3)nc(NCCCO)nc21 [Compound 4j] have IC50 strictly under 20 µM?
Ans: False

* * *

target: CDK2/cyclin E (Homo sapiens, UniProt P24941)
experiment: CDK2/cyclin E kinase inhibition assay ([γ-33P]ATP, peptide substrate)
Format: biochemical
experimentalContext: single purine, no β-CD; mean ± SD of duplicated experiments; read-out: CDK2/Cyclin E IC50, Purine
Quick reference for pIC50 among some compounds
Just so you know, pIC50 here is -log10 of the concentration in molar units; reply with that number alone.

These solved cases illustrate the format of a correct answer.
- compound: "CC(C)n1cnc2c(Nc3cccc(C(=O)C45CC6CC(CC(C6)C4)C5)c3)nc(NCCCO)nc21"
  pIC50: 5.59
- compound: "CC(C)n1cnc2c(Nc3cccc(C(O)C45CC6CC(CC(C6)C4)C5)c3)nc(NCCCO)nc21 (centres unmarked)"
  pIC50: 6.68

Q: Looking for the measured pIC50 of CC(C)n1cnc2c(Nc3ccc(C(O)C45CC6CC(CC(C6)C4)C5)cc3)nc(NCCCO)nc21 (centres unmarked) , can you help?
Ans: 5.80

Q: Looking for the measured pIC50 of CC(C)n1cnc2c(Nc3ccc(C(=O)C45CC6CC(CC(C6)C4)C5)cc3)nc(NCCCO)nc21 , can you help?
Ans: 6.22

Q: Looking for the measured pIC50 of CC(C)n1cnc2c(NCc3ccc(C(=O)CC45CC6CC(CC(C6)C4)C5)cc3)nc(NCCCO)nc21 , can you help?
Ans: 5.49

Q: Looking for the measured pIC50 of CC(C)n1cnc2c(Nc3cccc(C(O)CC45CC6CC(CC(C6)C4)C5)c3)nc(NCCCO)nc21 (centres unmarked) , can you help?
Ans: 6.04
